Biological target: CYP1B1 (Homo sapiens)
Assay: Inhibition of human recombinant CYP1B1 using 7-ethoxyresorufin as substrate at 1 uM preincubated with enzyme for 5 mins followed by fluorescent substrate and NADPH addition and measured after 35 mins by EROD assay
Type: ADME
Settings: recombinant CYP1B1, probe 7-ethoxyresorufin, time 40 min
MEASURED METRIC: inhibition at 35 min, 1 µM (%)
Reply with just the number (in %).

Ic1ccc(-c2nc(Nc3ccccc3)c3ccccc3n2)cc1    60.4
Nc1nc(-c2ccc(Br)cc2)nc2c1ccc1ccccc12    95.4
Nc1nc(-c2cccc(Br)c2)nc2ccccc12    55.4
CN(C)c1nc(-c2ccc(I)cc2)nc2ccccc12    95.5
COc1cccc(-c2nc(N)c3ccccc3n2)c1    91.7

Give inhibition at 35 min, 1 µM for the following compound: Nc1nc(-c2ccc(I)cc2)nc2c1ccc1ccccc12
88.5

Identify measured inhibition at 35 min, 1 µM corresponding to O=c1[nH]c(-c2ccc(Br)cc2)nc2ccccc12
94.5

Report inhibition at 35 min, 1 µM for Ic1ccc(-c2nc(N3CCOCC3)c3ccccc3n2)cc1
93.8

Consider the compound Cl.Nc1nc(-c2ccc(I)cc2)nc2ccccc12 and give its recorded inhibition at 35 min, 1 µM.
96.7

Name the recorded inhibition at 35 min, 1 µM of the item COC(=O)c1cccc(-c2nc(N)c3ccccc3n2)c1 in your answer.
1.98

Give me measured inhibition at 35 min, 1 µM, please, for this compound: CCCCNc1nc(-c2ccc(I)cc2)nc2ccccc12
86.4

Tell me measured inhibition at 35 min, 1 µM for Nc1nc(-c2ccc(Cl)cc2)nc2c1ccc1ccccc12 please.
95.4

====

logD: recorded values
Assay: n-Octanol/PBS partition coefficient, log D of the radiolabeled compound at 0.37 MBq at pH 7.4 by gamma-counting analysis
Format: physicochemical
Conditions: n-octanol/PBS, read-out: logD
Lab note: record the figure alone, no unit after it.

CCNc1nc(-c2ccc(I)cc2)nc2ccccc12    3.54

Now look at this entry.
Given the compound FCCNc1nc(-c2ccc(I)cc2)nc2ccccc12 , write its reported logD.
3.34

====

Target: Cytochrome P450 1A1 (Homo sapiens, UniProt P04798)
Sequence (P04798 whole entry): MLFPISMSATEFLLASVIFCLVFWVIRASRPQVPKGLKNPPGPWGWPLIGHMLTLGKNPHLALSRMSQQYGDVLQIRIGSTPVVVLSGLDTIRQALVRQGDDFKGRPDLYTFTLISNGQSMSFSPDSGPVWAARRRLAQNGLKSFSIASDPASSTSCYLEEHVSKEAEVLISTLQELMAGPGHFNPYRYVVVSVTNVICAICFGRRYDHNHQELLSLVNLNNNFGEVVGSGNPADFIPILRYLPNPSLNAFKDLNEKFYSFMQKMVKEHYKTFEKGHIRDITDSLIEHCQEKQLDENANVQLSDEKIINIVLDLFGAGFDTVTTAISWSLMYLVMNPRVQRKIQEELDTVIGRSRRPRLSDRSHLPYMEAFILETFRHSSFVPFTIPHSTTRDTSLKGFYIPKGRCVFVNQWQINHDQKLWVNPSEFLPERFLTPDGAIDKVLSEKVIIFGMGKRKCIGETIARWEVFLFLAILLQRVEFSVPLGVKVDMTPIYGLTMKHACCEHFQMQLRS
Experiment: Inhibition of human recombinant CYP1A1 using 7-ethoxyresorufin as substrate preincubated with enzyme for 5 mins followed by fluorescent substrate and NADPH addition and measured after 15 mins by EROD assay
MEASURED METRIC: IC50

Examples from the recorded data:
Nc1nc(-c2ccc(Br)cc2)nc2ccccc12    104 nM
O=c1cc(-c2ccccc2)oc2c1ccc1ccccc12 [ALPHA-NAPHTHOFLAVONE]    86.7 nM

Shifting focus to the compound that follows.
Annotate the compound CCNc1nc(-c2ccc(I)cc2)nc2ccccc12.Cl with its measured IC50.
85.8 nM

====

Target: UniProt Q16678
Sequence (Q16678 whole entry): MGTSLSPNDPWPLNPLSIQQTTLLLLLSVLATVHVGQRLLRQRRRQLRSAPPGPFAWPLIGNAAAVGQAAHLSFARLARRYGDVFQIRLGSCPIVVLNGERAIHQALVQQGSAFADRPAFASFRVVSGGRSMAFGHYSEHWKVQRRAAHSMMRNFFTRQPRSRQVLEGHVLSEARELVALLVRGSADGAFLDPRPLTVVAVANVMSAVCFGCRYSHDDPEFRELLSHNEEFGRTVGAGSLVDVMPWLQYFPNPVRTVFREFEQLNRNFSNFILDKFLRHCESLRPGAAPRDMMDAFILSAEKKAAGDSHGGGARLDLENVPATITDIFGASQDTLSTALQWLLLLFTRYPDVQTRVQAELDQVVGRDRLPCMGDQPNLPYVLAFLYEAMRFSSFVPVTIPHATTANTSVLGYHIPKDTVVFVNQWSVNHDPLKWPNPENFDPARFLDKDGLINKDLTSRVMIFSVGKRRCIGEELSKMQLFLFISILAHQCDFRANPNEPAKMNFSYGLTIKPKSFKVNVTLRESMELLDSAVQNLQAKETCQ
Assay: Inhibition of human recombinant CYP1B1 using 7-ethoxyresorufin as substrate at 0.01 uM preincubated with enzyme for 5 mins followed by fluorescent substrate and NADPH addition and measured after 35 mins by EROD assay
Format: ADME
Conditions: recombinant CYP1B1, probe 7-ethoxyresorufin, time 40 min
Entries and their inhibition at 35 min, 0.01 µM
Report the figure in % without appending any unit label.

State its inhibition at 35 min, 0.01 µM: NCCNc1nc(-c2ccc(I)cc2)nc2ccccc12
-6.11

Report inhibition at 35 min, 0.01 µM for CCCNc1nc(-c2ccc(I)cc2)nc2ccccc12
67.8

Give the reported value of inhibition at 35 min, 0.01 µM for this record: COc1ccc(-c2nc(N)c3ccc4ccccc4c3n2)cc1
44.2

Please supply the value of reported inhibition at 35 min, 0.01 µM for the item Nc1nc(-c2ccc(Br)cc2)nc2c1ccc1ccccc12
80.6

====

Overview of reported Ratio IC50 across a group of compounds:
Assay: Selectivity ratio of IC50 for Inhibition of human recombinant CYP1A1 to IC50 for Inhibition of human recombinant CYP1B1
Format: ADME
Conditions: recombinant enzyme

Answered examples (3):
CNc1nc(-c2ccc(I)cc2)nc2ccccc12    3.54 10^4No_unit
CCNc1nc(-c2ccc(I)cc2)nc2ccccc12.Cl    2.07 10^6No_unit
CCNc1nc(-c2ccc(I)cc2)nc2ccccc12    7.95 10^5No_unit

Okay, now this compound:
Return reported Ratio IC50. Input compound: CNc1nc(-c2ccc(I)cc2)nc2ccccc12.Cl
1.63 10^5No_unit

====

Molecular target: CYP1B1 (Homo sapiens, UniProt Q16678)
Assay: Inhibition of human recombinant CYP1B1 using 7-ethoxyresorufin as substrate at 1 uM preincubated with enzyme for 5 mins followed by fluorescent substrate and NADPH addition and measured after 35 mins by EROD assay
Format: ADME
Conditions: recombinant CYP1B1, probe 7-ethoxyresorufin, time 40 min
MEASURED METRIC: inhibition at 35 min, 1 µM
The answer should read as a number with its unit following.

Nc1nc(-c2ccc(Cl)nc2)nc2ccccc12    68%

Report value only: inhibition at 35 min, 1 µM, CYP1B1 (Homo sapiens, UniProt Q16678), Nc1nc(-c2cccc(I)c2)nc2ccccc12
96.7%

State the measured inhibition at 35 min, 1 µM (CYP1B1 (Homo sapiens, UniProt Q16678)) of NCCNc1nc(-c2ccc(I)cc2)nc2ccccc12
39.5%

====

Target: UniProtKB Q16678
Test: Inhibition of human recombinant CYP1B1 using 7-ethoxyresorufin as substrate at 0.01 uM preincubated with enzyme for 5 mins followed by fluorescent substrate and NADPH addition and measured after 35 mins by EROD assay
Type: ADME
Conditions: recombinant CYP1B1, probe 7-ethoxyresorufin, time 40 min
Reported inhibition at 35 min, 0.01 µM values for a set of compounds
Your answer should be a plain number; it is taken to be in %.

Some compounds with recorded inhibition at 35 min, 0.01 µM:
Cl.FCCNc1nc(-c2ccc(I)cc2)nc2ccccc12    90.1
COc1ccc(-c2nc(N)c3ccccc3n2)cc1    84.1

Please report the measured inhibition at 35 min, 0.01 µM for Ic1ccc(-c2nc(N3CCCC3)c3ccccc3n2)cc1
39.8

Provide only the value of recorded inhibition at 35 min, 0.01 µM for Ic1ccc(-c2nc(N3CCOCC3)c3ccccc3n2)cc1
51.8

Kindly indicate its recorded inhibition at 35 min, 0.01 µM. Item: Ic1ccc(-c2nc(Nc3ccccc3)c3ccccc3n2)cc1
7.25

Report measured inhibition at 35 min, 0.01 µM; entry is Nc1nc(-c2ccc(F)cc2)nc2c1ccc1ccccc12
11

Give the measured inhibition at 35 min, 0.01 µM for Nc1nc(-c2ccc(Cl)cc2)nc2ccccc12
68.4

Look up and report measured inhibition at 35 min, 0.01 µM for this entry: Nc1nc(-c2ccccc2)nc2c1ccc1ccccc12
6.15

====

Biological target: Cytochrome P450 1A2 (Homo sapiens, UniProt P05177)
Sequence (P05177 whole entry): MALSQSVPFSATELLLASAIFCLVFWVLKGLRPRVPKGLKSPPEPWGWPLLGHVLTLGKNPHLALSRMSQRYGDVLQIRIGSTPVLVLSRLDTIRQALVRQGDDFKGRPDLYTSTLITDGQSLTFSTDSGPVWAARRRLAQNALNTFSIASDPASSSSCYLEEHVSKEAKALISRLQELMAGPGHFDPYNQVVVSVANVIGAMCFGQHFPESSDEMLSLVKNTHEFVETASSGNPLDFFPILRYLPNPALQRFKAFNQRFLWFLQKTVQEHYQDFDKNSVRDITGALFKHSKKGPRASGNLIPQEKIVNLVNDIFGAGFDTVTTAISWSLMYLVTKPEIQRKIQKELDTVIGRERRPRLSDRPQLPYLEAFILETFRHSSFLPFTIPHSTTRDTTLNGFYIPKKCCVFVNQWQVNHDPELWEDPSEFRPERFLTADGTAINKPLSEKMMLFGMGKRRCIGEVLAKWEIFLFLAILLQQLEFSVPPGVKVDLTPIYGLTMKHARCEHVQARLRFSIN
Assay: Inhibition of human recombinant CYP1A2 using 7-ethoxyresorufin as substrate preincubated with enzyme for 5 mins followed by fluorescent substrate and NADPH addition and measured after 50 mins by EROD assay
Format: ADME
# IC50 per entry
Only the number, expressed in µM, is required.

Cc1ccc(-c2nc(N)c3ccccc3n2)cc1    5.34
Nc1nc(-c2ccc(Br)cc2)nc2c1ccc1ccccc12    0.784
CCNc1nc(-c2ccc(I)cc2)nc2ccccc12.Cl    1.5

Kindly consider the entry below.
Give IC50 for CNc1nc(-c2ccc(I)cc2)nc2ccccc12
1.11
